- measurement-description: qHTS assay to identify small molecule antagonists of the estrogen related receptor (ERR) signaling pathway from Tox21 library - cell viability counter screen (AID 1224834); also: nearly all actives have a fitted effect of over 30% in size
- reported-conditions: ERR reporter cells viability, CellTiter-Fluor, 17.5 h; series mostly up to 92.4 µM
Inconclusive results are not listed. The source made the active and inactive calls. Calls follow the shape of the dose curve; as a rule, active = well fitted cell-killing curve with a large enough effect in the repeat runs; inconclusive = weak or mixed curves; inactive = flat fitted curve, though single readings scatter.
One label from this list, please: active, inactive

| compound | class-assignment |
| --- | --- |
| CCCCCCCCC(C)=O | inactive |

Problem: Lab log entry: "COC(=O)CC#N" — outcome as called in the assay?
Solution: inactive

Problem: Hi, sorry to bother you, what did the test record for "CC(C)(c1cc(Br)c(O)c(Br)c1)c1cc(Br)c(O)c(Br)c1" ?
Solution: inactive

Problem: Dear all, I need the recorded test outcome for "O[C@@H](c1cc(C(F)(F)F)nc2c(C(F)(F)F)cccc12)[C@H]1CCCCN1" , thank you.
Solution: active

Problem: Assay result, entry CCN(CC)CCOc1ccc(C(O)(Cc2ccc(Cl)cc2)c2ccc(C)cc2)cc1 (stereo unspecified) — outcome?
Solution: active

Problem: What outcome does the record of this test show for "c1ccc2c(c1)CCC2" ?
Solution: inactive
